METHOD_NOTES: CelltiterGlo viability cell assay
Assay type: cell-based
ASSAY_CONDITIONS: human, HCC1143 breast cancer cells, HCC1143, 3 day, 0.01 uM; read-out: viability Replicate 2
REPORTED_PROPERTY: viability at 3 day, 0.01 µM

Sample COc1cc(OC)cc(-c2noc(N3CCN(C)C4(CCN(c5ccnc(C)c5)CC4)C3)n2)c1 [MRK-740] ; viability at 3 day, 0.01 µM observed: 94.8%

* * *

METHOD_NOTES: CelltiterGlo viability cell assay
Type: cell-based
ASSAY_CONDITIONS: human, SKMM2 cells (multiple myeloma line), SKMM2, 3 day, 9.5 uM; read-out: viability Replicate 2
REPORTED_PROPERTY: viability at 3 day, 9.5 µM (%)
State the answer as a number, implicitly in %.

GET /value?item= `COc1cc(OC)cc(-c2noc(N3CCN(C)C4(CCN(c5ccnc(C)c5)CC4)C3)n2)c1` &field=viability at 3 day, 9.5 µM returns 89.2

* * *

METHOD_NOTES: CelltiterGlo viability cell assay
Assay type: cell-based
ASSAY_CONDITIONS: human, HCC1806 breast cancer cells, HCC1806, 6 day, 9.5 uM; read-out: viability Replicate 1
REPORTED_PROPERTY: viability at 6 day, 9.5 µM

Just so you know, measured viability at 6 day, 9.5 µM for `COc1cc(OC)cc(-c2noc(N3CCN(C)C4(CCN(c5ccnc(C)c5)CC4)C3)n2)c1` came out at 23.5%

* * *

METHOD_NOTES: CelltiterGlo viability cell assay
Type: cell-based
ASSAY_CONDITIONS: human, HCC1143 breast cancer cells, HCC1143, 6 day, 0.1 uM; read-out: viability Replicate 3
REPORTED_PROPERTY: viability at 6 day, 0.1 µM (%)
Your answer is read as %, so omit the unit and give the number.

COc1cc(OC)cc(-c2noc(N3CCN(C)C4(CCN(c5ccnc(C)c5)CC4)C3)n2)c1 [MRK-740] yielded viability at 6 day, 0.1 µM of 111

* * *

SYSTEM_TESTED: PRDM9 (Homo sapiens)
Construct: PRDM9 (amino acids: 195–415)
Sequence (Q9NQV7 195-415): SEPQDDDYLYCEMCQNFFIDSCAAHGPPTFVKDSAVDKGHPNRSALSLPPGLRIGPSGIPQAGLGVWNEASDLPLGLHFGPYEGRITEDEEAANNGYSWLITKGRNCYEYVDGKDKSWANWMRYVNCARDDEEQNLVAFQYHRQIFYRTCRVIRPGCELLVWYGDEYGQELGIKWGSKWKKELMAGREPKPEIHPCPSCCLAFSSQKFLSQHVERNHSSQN
METHOD_NOTES: MOA determination: IC50 at varying SAM or peptide concentrations (SPA)
Format: biochemical
ASSAY_CONDITIONS: [SAM]/Km 0.73; Figure 2d; average of replicates; read-out: Average IC50
REPORTED_PROPERTY: IC50
I'd appreciate it if you wrote the number followed by its unit.

Measured IC50 of `COc1cc(OC)cc(-c2noc(N3CCN(C)C4(CCN(c5ccnc(C)c5)CC4)C3)n2)c1` : 374 nM

* * *

METHOD_NOTES: CelltiterGlo viability cell assay
Format: cell-based
ASSAY_CONDITIONS: human, HCC1806 breast cancer cells, HCC1806, 6 day, 1 uM; read-out: viability Replicate 1
REPORTED_PROPERTY: viability at 6 day, 1 µM

Query COc1cc(OC)cc(-c2noc(N3CCN(C)C4(CCN(c5ccnc(C)c5)CC4)C3)n2)c1 [MRK-740] yields viability at 6 day, 1 µM of 102%
